run_description: Solubility studies of fulvestrant in solvents, co-solvents, oils and release rate modifiers
Format: physicochemical
condition_label: benzyl alcohol / diethylene glycol monoethyl ether mixture; Benzyl alcohol (2 v/v %):Diethylene glycol monoethyl ether (q.s. to 1 mL); read-out: Fulvestrant solubility achieved
Description: Solubility studies of fulvestrant were performed using various combinations of solvent, co-solvents, oils and release rate modifiers. The resultant data are shown herein below Table 1.
parameter: solubility (mg/mL)
Note: unit mg/mL is implicit; provide only the numeric part.

GET /value?item= C[C@]12CC[C@@H]3c4ccc(O)cc4C[C@@H](CCCCCCCCC[S+]([O-])CCCC(F)(F)C(F)(F)F)[C@H]3[C@@H]1CC[C@@H]2O (stereo partly shown) &field=solubility returns 200

Origin of the recorded values: patent US20170027958A1
